The values you see were collected from patent US8987314B2.

Experimental target: UniProtKB P11150
Sequence (P11150 23-499, species assumed): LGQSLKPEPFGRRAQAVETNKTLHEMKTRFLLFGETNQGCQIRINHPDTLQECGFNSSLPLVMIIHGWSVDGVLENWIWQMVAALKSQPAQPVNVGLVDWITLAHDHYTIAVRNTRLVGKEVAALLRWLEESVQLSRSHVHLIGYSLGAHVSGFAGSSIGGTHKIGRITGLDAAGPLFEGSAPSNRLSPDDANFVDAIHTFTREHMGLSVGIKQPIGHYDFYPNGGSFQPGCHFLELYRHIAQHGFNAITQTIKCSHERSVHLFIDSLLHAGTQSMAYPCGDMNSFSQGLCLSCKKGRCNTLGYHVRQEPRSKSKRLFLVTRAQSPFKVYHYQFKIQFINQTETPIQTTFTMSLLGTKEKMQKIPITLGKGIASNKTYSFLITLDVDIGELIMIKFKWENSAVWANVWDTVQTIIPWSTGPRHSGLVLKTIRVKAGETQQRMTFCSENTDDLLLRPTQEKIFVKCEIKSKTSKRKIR
Assay summary: HL assay: hepatic lipase activity with fluorescent substrate A10070 in DMPG vesicles
Type: biochemical
Endpoint name: IC50 (nM)

I have this compound here, COCCNC(=O)c1ccc(-c2ccc3nc(C(C(=O)NCCS(N)(=O)=O)S(=O)(=O)C(C)C)sc3c2)cc1 (stereo not drawn) , and I need its recorded IC50.
289

[I] COCCS(=O)(=O)C(C(=O)NCCS(N)(=O)=O)c1nc2ccc(-c3ccc(F)nc3)cc2s1 (stereo not drawn)
[II] COCCS(=O)(=O)C(C(=O)NCc1cc(C)no1)c1nc2ccc(-c3ccccc3)cc2s1 (stereo not drawn)
Between the entries labeled I and II , whose measured IC50 is lower? API: response body contains the label of the selected item.
II
